- assayed.system: DCAF1 WD40 domain (residues 1077-1390) (Homo sapiens, UniProt Q9Y4B6)
- Construct: DCAF1 WD40 domain (residues 1077-1390)
- Sequence (Q9Y4B6 1077-1390): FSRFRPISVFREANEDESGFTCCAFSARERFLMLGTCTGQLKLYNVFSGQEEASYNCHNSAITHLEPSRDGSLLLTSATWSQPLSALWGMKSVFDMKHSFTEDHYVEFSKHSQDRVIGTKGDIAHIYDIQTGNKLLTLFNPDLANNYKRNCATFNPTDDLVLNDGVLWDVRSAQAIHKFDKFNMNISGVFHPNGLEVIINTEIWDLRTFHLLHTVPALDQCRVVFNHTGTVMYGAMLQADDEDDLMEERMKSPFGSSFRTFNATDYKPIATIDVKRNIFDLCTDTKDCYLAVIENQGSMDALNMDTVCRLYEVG
- method.notes: DCAF1 binding assay by SPR (Biacore 8K+), DCAF1-3 KD
- recorded.conditions: 25 °C, read-out: DCAF1-3 SPR (KD)
pKd: −log10 of the molar value.
Recorded pKd values for a group of molecules are listed next.

Known results for molecules:
{"mol.smiles": "NC(=O)Cc1cccc(N2CCC[C@H]3[C@@H]2CCN3c2cc(N3CCCCC3)ccn2)c1", "assayed.system": "DCAF1 WD40 domain (residues 1077-1390) (Homo sapiens, UniProt Q9Y4B6)", "pKd": "> 5.00"}
{"mol.smiles": "OCCC[C@@H]1C[C@H]2[C@H](CCCN2c2cccc(F)c2)N1c1cc(N2CCCCC2)ccn1", "assayed.system": "DCAF1 WD40 domain (residues 1077-1390) (Homo sapiens, UniProt Q9Y4B6)", "pKd": "4.00 to 5.00"}

**Query** Could you share which pKd value was measured for `Fc1cccc(N2CCC[C@@H]3CN(c4cc(N5CCCCC5)ccn4)C[C@@H]32)c1` ?
**Result** 4.00 to 5.00

**Query** Param item: `Fc1cccc(N2CCC[C@@H](Nc3cc(N4CCCCC4)cc4c3CNC4)C2)c1`
**Result** 4.00 to 5.00

---

- assayed.system: DCAF1 WD40 domain (residues 1077-1390) (Homo sapiens)
- Construct: DCAF1 WD40 domain (residues 1077-1390)
- method.notes: DCAF1 binding assay by SPR (Biacore 8K+), DCAF1-3 KD
- recorded.conditions: 25 °C, read-out: DCAF1-3 SPR (KD)
attribute.measured: Kd

**Query** Could you share which Kd value was measured for `Fc1cccc(N2CCC[C@@H](Nc3ccnc(N4CCOCC4)n3)C2)c1` ?
**Result** > 200 µM

**Query** Param item: Fc1cccc(N2CCC[C@@H](Nc3cc(N4CC5CC5C4)ccn3)C2)c1 (stereo partly shown)
**Result** 10 to 100 µM

**Query** Param item: `Fc1cccc(N[C@@H]2CCCN(c3cc(N4CCCCC4)ccn3)C2)c1`
**Result** > 200 µM

**Query** Param item: `NCCOCCOCCOCCOCCOCCC1CCN(c2ccnc(N3CC[C@@H]4[C@H]3CCCN4c3cccc(F)c3)c2)CC1`
**Result** < 10 µM

**Query** Param item: `NC(=O)N1Cc2ccc(N3CCC[C@H]4[C@@H]3CCN4c3cc(N4CCCCC4)ccn3)cc2C1`
**Result** < 10 µM

**Query** Param item: `C[C@H](CC(N)=O)NC(=O)c1cn[nH]c1-c1ccccc1F`
**Result** > 200 µM

**Query** Param item: C[C@H]1CCCCN1c1ccnc2c1CCN2C1CCCN(c2cccc(F)c2)C1 (stereo partly shown)
**Result** < 10 µM

**Query** Param item: `C[C@H]1CCCC[C@H]1c1[nH]ncc1C(=O)N[C@@H](CC(N)=O)c1cccc(Cl)c1`
**Result** < 10 µM

**Query** Param item: `NC(=O)C[C@H](NC(=O)c1cnn(CC2CC2)c1-c1ccccc1F)c1cccc(Cl)c1`
**Result** 10 to 100 µM

**Query** Param item: `O=C1Cc2cc(N3CCC[C@@H](Nc4cc(N5CCOCC5)ccn4)C3)ncc2N1`
**Result** > 200 µM
